Would you kindly list IC50 for each of these compounds?
Experiment: microbe, parasite or virus in culture
Conditions: Mycobacterium tuberculosis, 72 h, read-out: pIC50 (converted)

Consider the reported IC50 for these compounds:
| COMPOUND | IC50 |
| --- | --- |
| O=C(O)[C@@H]1CN(Cc2ccc(-c3cc[nH]n3)s2)C[C@H]1C1CC1 | > 50.1 µM |
| c1cc2c(cc1CNc1nnc(C3CC3)o1)OCCO2 | 151 µM |
| NCCS(=O)(=O)N1CCc2ccccc21 | 149 µM |

The following compounds each have a reported value; give each one's IC50.
1. COc1ccc(CNC(Cc2ccsc2)c2ccc(C)cn2)c(OC)c1 (configuration not stated)
2. CCC(N)C(=O)N1CCN(c2ccc(F)cc2Cl)CC1 (configuration not stated)
3. Cc1csc(NC(=O)CNC(=O)c2cccs2)n1
4. CC(C)(C)Cc1nnc(NCc2ccsc2)o1
5. O=c1c2sccc2nc2n1CCN(Cc1cc(F)ccc1F)CC2

**Result**
48.5 µM
322 µM
185 µM
> 50.1 µM
25 µM

// each listed compound needs a value for IC50
1. Cc1nc(CN2CCC(NS(C)(=O)=O)CC2)co1
2. CC(C)N(C)S(=O)(=O)N(C)Cc1ccc(Br)o1

**Result**
1: > 50.1 µM; 2: 204 µM

----------
Assay: microbe, parasite or virus in culture
Conditions: Mycobacterium tuberculosis, 72 h, read-out: pIC50 (converted)
Binary label based on IC50 with cut-off 100 µM: below gives yes, not below gives no.

Take a look at these entries with their results.
| COMPOUND | ANSWER_LABEL |
| --- | --- |
| CSCC(CCO)Nc1ncccc1C(F)(F)F (stereo not drawn) | no |
| CC(C)NC(=O)Nc1cc(C(F)(F)F)c[nH]c1=O | yes |
| CCCc1nc(NCCc2ccccc2)c2c(n1)c(C)nn2CC | yes |
| NCC(=O)N1CCCC(CCc2c(F)cccc2F)C1 (stereo not drawn) | no |
| CC(C)N(C)S(=O)(=O)NC1CCOc2ccccc21 (stereo not drawn) | no |
| Cn1cc(Br)cc1C(=O)NCCCNc1ncccn1 | no |

**Query** Hello, is IC50 of the following compound strictly smaller than 100 µM? COCCOc1ccc(C(=O)NCc2ccco2)cc1
**Result** no

----------
Consider the following compounds; for each one, report its log10 IC50.
Experiment: microbe, parasite or virus in culture
Conditions: Mycobacterium tuberculosis, 72 h, read-out: pIC50 (converted)
Annotation: log10 of IC50, µM basis.

Some compounds with known log10 IC50 results, for comparison:
| COMPOUND | log10 IC50 |
| --- | --- |
| Cc1ccc(N(CC(=O)c2ccc(Br)cc2)C2=NCCCCC2)cc1 | 1.05 |
| C(Cc1noc(C2CNC2)n1)OCC1CC1 | 2.13 |

Need log10 IC50 for each of these compounds.
1. COc1cccc(N2CCC(CN)C2)c1 (configuration not stated)
2. O=C(NCC1CC1)c1nnc2ccc(Cl)cc2n1
3. CN(C(=O)c1ccccc1)S(=O)(=O)c1ccccc1
4. COCCN1CCN(CCS(=O)(=O)C(F)(F)F)CC1
5. COc1cc(Oc2cnc3ccccc3n2)ccc1CN1CCCC1
6. COc1ccc(CCN)c(Cl)c1OC

**Result**
[1.84, 0.75, 2.45, 2.12, 0.97, 2.42]

Quick request: log10 IC50 for each listed item, please.
1. COc1ncccc1CN(C)S(=O)(=O)c1cccs1
2. NC(=O)NC(=O)CCN1CCCc2c(Br)cccc2C1
3. CC[C@H](N)C(=O)N(C)Cc1cccc(OC(F)(F)F)c1
4. COc1cccc(OC)c1CNC(Cc1ccsc1)c1ccc(C)cn1 (configuration not stated)

**Result**
1. 2.20
2. 1.68
3. 2.30
4. 1.21

Could you tell me log10 IC50 for each of these compounds? They are listed below.
1. CO[C@@H]1CCN(c2nnc(C)s2)C[C@@H]1Cc1cccc(C)c1.O=C(O)C(F)(F)F
2. CN(C)c1ccc(CNC(=O)C2CCCO2)cc1 (configuration not stated)
3. N#Cc1nc(NCCSCCCO)ccc1Cl
4. COc1ccccc1CN1CCC(N)CC1
5. N[C@H]1CCN(S(=O)(=O)c2ccc(F)c(C(F)(F)F)c2)C1
6. CC(C)Oc1ccc(S(=O)(=O)N2CCC(N)C2)cc1 (configuration not stated)
7. NCC1Cc2ccccc21 (configuration not stated)
8. CN(CC(=O)Nc1sccc1C(N)=O)Cc1cccs1

**Result**
[1.62, 2.34, 2.34, 2.11, 2.00, 2.33, 2.06, 2.07]
